Biological target: GPR40 (Homo sapiens, UniProt O14842)
Construct: expressed in transfected cells; host or cells: HEK293 cells stably expressing GPR40 (Hygromycin selection)
Sequence (O14842 whole entry): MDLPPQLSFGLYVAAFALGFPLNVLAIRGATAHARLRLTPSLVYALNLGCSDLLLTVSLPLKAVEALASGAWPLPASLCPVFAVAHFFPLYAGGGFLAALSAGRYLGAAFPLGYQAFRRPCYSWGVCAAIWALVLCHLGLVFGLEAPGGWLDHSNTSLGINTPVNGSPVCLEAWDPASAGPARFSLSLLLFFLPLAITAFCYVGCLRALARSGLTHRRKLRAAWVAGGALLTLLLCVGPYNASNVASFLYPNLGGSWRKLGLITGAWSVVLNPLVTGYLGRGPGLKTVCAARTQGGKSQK
Assay: IP1 accumulation assay in HEK293 cells stably expressing GPR40
Format: cell-based
Settings: IP1 accumulation, HEK293 cells stably expressing GPR40, 2 hours at 37° C., % effect relative to AMG-1638; table of Biological Example 1
Protocol: IP1 accumulation assay was used to evaluate the potency of compounds. […] Assay plate was incubated at room temperature for 60 min and then read at 665 nm/615 nm on an Envision plate reader (PerkinElmer). […] Dose curve was fitted and EC50 of each compound was calculated by using XLFit.
experimentalEndpoint: pEC50
Interpret pEC50 as the negative base-10 log of the concentration measured in mol/L.

These solved cases illustrate the format of a correct answer.
COc1ccc(F)c(-c2ccc(COc3cccc([C@@H](CC(=O)O)C4CC4)c3)cc2CC(C)(C)Cn2cc(CCCCCCCCCCCC(=O)NCCCN(CC(=O)O)CC(=O)O)nn2)c1 [Example 120] :: 5.89
COc1ccc(C(=O)N(CC(C)(C)CCCCCCn2cc(CCCCCCCCCCCCCCCCCC(=O)NCCCN(C)CC(=O)NCCN)nn2)c2cccc(C)n2)c(N2CCC(COc3cc([C@@H](CC(=O)O)C4CC4)ccn3)CC2)c1 [Example 149] :: 10.05
COc1ccc(C(=O)N(CC(C)(C)CCCCCCn2cc(CCCCCCCCCCC(=O)NCCN(CCC(=O)NCCN)CCC(=O)NCCN)nn2)c2cccc(C)n2)c(N2CCC(COc3cc([C@@H](CC(=O)O)C4CC4)ccn3)CC2)c1 [Example 68] :: 9.00
COc1ccc(C(=O)N(CC(C)(C)CCn2cc(CCCCCCCCCCCCCCCCCC(=O)NCCC[N+](C)(C)CC(=O)NCCN)nn2)c2cccc(C)n2)c(N2CCC(COc3cc([C@@H](CC(=O)O)C4CC4)ccn3)CC2)c1 [Example 151] :: 10.30
C[C@H](C(=O)O)[C@H](c1ccc2c(c1)O[C@@H](C1CN(Cc3cc(-c4cn(CCCCCCCCCCCCCCCCCC(=O)NCC[N+](C)(CCC(=O)NCCN)CCC(=O)NCCN)nn4)ccc3OC(F)(F)F)C1)CC2)C1CC1 [Example 45] :: 9.17

Give pEC50 (GPR40 (Homo sapiens, UniProt O14842)) of the following compound: COc1ccc(C(=O)N(CC(C)(C)CCn2cc(CCCCCCCCCCCCCC(=O)NCCCN(CC(=O)O)CC(=O)O)nn2)c2cccc(C)n2)c(N2CCC(COc3cc([C@@H](CC(=O)O)C4CC4)ccn3)CC2)c1 [Example 128]
8.88

How about this compound: COc1ccc(C(=O)N(CC(C)(C)CCn2cc(CCCCCCCCCCCC(=O)NCCCN(CC(=O)O)CC(=O)O)nn2)c2cccc(C)n2)c(N2CCC(COc3cc([C@@H](CC(=O)O)C4CC4)ccn3)CC2)c1 [Example 126]
8.24

How about this compound: COc1ccc(C(=O)N(CC(C)(C)CCn2cc(COCCOCCOCC(=O)NCC[N+](C)(CCC(=O)NCCN)CCC(=O)NCCN)nn2)c2cccc(C)n2)c(N2CCC(COc3cc([C@@H](CC(=O)O)C4CC4)ccn3)CC2)c1 [Example 162]
5.90

How about this compound: COc1ccc(C(=O)N(CC(C)(C)CCn2cc(CCCCCCCCCCC(=O)NCCN(CCC(=O)NCCN)CCC(=O)NCCN)nn2)c2cccc(C)n2)c(N2CCC(COc3cc([C@@H](CC(=O)O)C4CC4)ccn3)CC2)c1 [Example 112]
7.83

How about this compound: COc1ccc(C(=O)N(CC(C)(C)CCCCCCn2cc(CCCCCCCCCCCCC(=O)NCC[N+](C)(CCC(=O)NCCN)CCC(=O)NCCN)nn2)c2cccc(C)n2)c(N2CCC(COc3cc([C@@H](CC(=O)O)C4CC4)ccn3)CC2)c1 [Example 43]
9.68

How about this compound: COc1ccc(C(=O)N(CC(C)(C)CCn2cc(CCCCCCCCCCCCCCCCC(=O)NCCCN(CC(=O)O)CC(=O)O)nn2)c2cccc(C)n2)c(N2CCC(COc3cc([C@@H](CC(=O)O)C4CC4)ccn3)CC2)c1 [Example 132]
9.72

How about this compound: COc1ccc(F)c(-c2ccc(COc3cccc([C@@H](CC(=O)O)C4CC4)c3)cc2C(OCCCCCn2cc(CCCCCCCCCCCCCCCCCC(=O)NCCN(CCC(=O)NCCN)CCC(=O)NCCN)nn2)C(C)(C)C)c1 (stereo partly drawn) [Example 12]
8.95

The reported numbers originate from patent US20250223281A1.
